All values here come from patent US20100113510A1.

Target Or Test System: human muscarinic acetylcholine M3 receptor (M3-ACh) (Homo sapiens, UniProt P20309)
Construct: expressed in transfected cells; host or cells: CHO-K1 (Chinese Hamster Ovary) cell membranes
Sequence (P20309 whole entry): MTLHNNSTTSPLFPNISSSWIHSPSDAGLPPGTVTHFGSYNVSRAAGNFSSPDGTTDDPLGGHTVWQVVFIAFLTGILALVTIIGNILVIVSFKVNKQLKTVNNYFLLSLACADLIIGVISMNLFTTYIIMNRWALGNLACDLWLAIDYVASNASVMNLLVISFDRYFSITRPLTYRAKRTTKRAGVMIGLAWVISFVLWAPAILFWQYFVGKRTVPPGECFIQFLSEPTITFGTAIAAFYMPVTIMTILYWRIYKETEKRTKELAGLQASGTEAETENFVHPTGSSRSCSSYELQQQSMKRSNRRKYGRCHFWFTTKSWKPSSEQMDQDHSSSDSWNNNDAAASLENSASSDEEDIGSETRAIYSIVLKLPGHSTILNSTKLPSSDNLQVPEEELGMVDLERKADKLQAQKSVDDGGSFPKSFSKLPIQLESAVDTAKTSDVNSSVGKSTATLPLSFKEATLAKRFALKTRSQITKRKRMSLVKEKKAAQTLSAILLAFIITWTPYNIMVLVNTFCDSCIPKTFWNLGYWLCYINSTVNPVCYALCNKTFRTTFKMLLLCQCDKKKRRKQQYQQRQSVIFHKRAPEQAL
Protocol Summary: biochemical
Type: binding
Condition Summary: pIC50 (M3 Binding IC50 classes)
pIC50: −log10 of the molar value.
Outcome Measure: pIC50

In: Name the recorded pIC50 of the compound listed here: CC(C(=O)O[C@H]1C[N+]2(CC(=O)Nc3ccccc3)CCC1CC2)(c1ccccc1)N1CCCCCC1 (single isomer, unassigned)
Out: > 8.70

In: Name the recorded pIC50 of the compound listed here: CC(C(=O)O[C@H]1C[N+]2(CCCOc3ccccc3)CCC1CC2)(c1cccs1)N1CCSCC1 (single isomer, unassigned)
Out: > 8.70

In: Name the recorded pIC50 of the compound listed here: CC(C(=O)O[C@H]1C[N+]2(CCc3cccc(Cl)c3)CCC1CC2)(c1ccccc1)N1CCSCC1 (single isomer, unassigned) [Example 99]
Out: 8.00 to 8.70

In: Name the recorded pIC50 of the compound listed here: CC(C(=O)O[C@H]1C[N+]2(CC(=O)Nc3ccon3)CCC1CC2)(c1ccccc1)N1CCSCC1 (single isomer, unassigned)
Out: > 8.70

In: Name the recorded pIC50 of the compound listed here: CC(C(=O)O[C@H]1C[N+]2(CCc3cccc(Cl)c3)CCC1CC2)(c1cccs1)N1CCSCC1 (single isomer, unassigned)
Out: > 8.70

In: Name the recorded pIC50 of the compound listed here: CCOC(=O)Cc1csc(NC(=O)C[N+]23CCC(CC2)[C@@H](OC(=O)[C@](C)(c2ccccc2)N2CCCCC2)C3)n1
Out: 8.00 to 8.70
